Reference source: patent US10919943B2

Test system: HAB1
Test protocol: Yeast two hybrid of pBD-PYR1 site saturation mutants with pACT-HAB1 on 10 μM ABA, β-galactosidase staining
Type: cell-based, Arabidopsis
Design: key: x: Mutations in PYR1 that disrupt ABA-induced binding to PYR1 to HAB1
Test parameters: S. cerevisiae Y190, 10 μM ABA; dead = lack of visible staining in comparison to wild type control
Attribute measured: Mutations in PYR1 that disrupt ABA-induced binding to PYR1 to HAB1

Molecule: H115C: PYR1 mutant (protein, UniProt O49686 1-191, looked up, variant H115C) Abscisic acid receptor PYR1: MPSELTPEERSELKNSIAEFHTYQLDPGSCSSLHAQRIHAPPELVWSIVRRFDKPQTYKHFIKSCSVEQNFEMRVGCTRDVIVISGLPANTSTERLDILDDERRVTGFSIIGGECRLTNYKSVTTVHRFEKENRIWTVVLESYVVDMPEGNSEDDTRMFADTVVKLNLQKLATVAEAMARNSGDGSGSQVT
Endpoint value: x
//
Molecule: F61H: PYR1 mutant (protein, UniProt O49686 1-191, looked up, variant F61H) Abscisic acid receptor PYR1: MPSELTPEERSELKNSIAEFHTYQLDPGSCSSLHAQRIHAPPELVWSIVRRFDKPQTYKHHIKSCSVEQNFEMRVGCTRDVIVISGLPANTSTERLDILDDERRVTGFSIIGGEHRLTNYKSVTTVHRFEKENRIWTVVLESYVVDMPEGNSEDDTRMFADTVVKLNLQKLATVAEAMARNSGDGSGSQVT
Endpoint value: x
